System: MDA-MB-468 breast
Experiment: NCI-60 one-dose screen, 48 h
Details: 10 µM unless noted
The panel holds about 83,000 compounds, 20% with a hit somewhere; the sample as a whole holds those more often. Calls of active or inactive are those of the source. Rule for the calls: active = growth percent below 10; inactive = the rest.
Possible outcomes: active, inactive

molecule: N#Cc1ccc(/C=N/NC(=O)c2[nH]c3ccc(Br)cc3c2-c2ccccc2)o1
discreteLabel: active

molecule: C=C1CC[C@@H]2[C@]3(C)COC(c4cn[nH]c4-c4cccc(Br)c4)O[C@@H]3CC[C@@]2(C)[C@@H]1C/C=C1/C(=O)OCC1O (some centres undefined)
discreteLabel: active

molecule: Cc1occc1C(=O)NN1C(=O)/C(=C/C=C/c2ccc([N+](=O)[O-])o2)SC1=S
discreteLabel: active

molecule: N#Cc1c(-c2cccc3ccccc23)cc(-c2cccc(OCC(=O)O)c2)[nH]c1=O
discreteLabel: inactive

molecule: COc1cc2oc(-c3cccc(NC(=O)[C@H](CC(N)=O)NC(=O)OC(C)(C)C)c3)cc(=O)c2c(OC)c1OC
discreteLabel: inactive

molecule: CCN1CCN(Cc2ccc(C(=O)Nc3cccc(C#Cc4cccc5[nH]nc(N)c45)c3)cc2C(F)(F)F)CC1
discreteLabel: active

molecule: CN(C)CCCNC(=O)c1cc(NC(=O)c2cc(NC(=O)c3ccc(/C=C/c4ccccc4)cc3)cn2C)cn1C
discreteLabel: inactive

molecule: COc1cccc(/C=C/C(=O)c2ccc(OC)c(S(N)(=O)=O)c2)c1
discreteLabel: inactive

molecule: CC(=O)Nc1ccc(-n2cnc3cc(-c4ccc(O)cc4)ccc32)cc1C(F)(F)F
discreteLabel: active

Reference source: PubChem BioAssay (NCI)
